Assay: Single dose oral pharmacokinetic study in mice
Format: in vivo
Conditions: mouse, plasma; Mice oral PK @30 mg/kg (Table 5)
Readout Type: Tmax (h)
Record the value in h, omitting the unit from your answer.

Previously resolved entries follow.
{"columns": ["Structure Smiles String", "Tmax / h"],
 "data": [
  ["CCN1CCN(C(=O)[C@]23CC[C@@H](C4(C)CC4)[C@@H]2[C@H]2CC[C@@H]4[C@@]5(C)CC[C@H](OC(=O)CC(C)(C)C(=O)O)C(C)(C)[C@@H]5CC[C@@]4(C)[C@]2(C)CC3)CC1", 4],
  ["CCN1CCN(C(=O)[C@]23CC[C@@H](C4(C)CC4)[C@@H]2[C@H]2CC[C@@H]4[C@@]5(C)CC[C@H](OC(=O)[C@H]6C[C@@H](C(=O)O)C6(C)C)C(C)(C)[C@@H]5CC[C@@]4(C)[C@]2(C)CC3)CC1", 20],
  ["CC(C)(CC(=O)O[C@H]1CC[C@]2(C)[C@H]3CC[C@@H]4[C@H]5[C@H]([C@@](C)(O)CO)CC[C@]5(C(=O)N[C@@H]5C[C@H](C(=O)N6CCCCC6)C5(C)C)CC[C@@]4(C)[C@]3(C)CC[C@H]2C1(C)C)C(=O)O", 0.63],
  ["C=C(C)[C@@H]1CC[C@]2(C(=O)N[C@@H]3C[C@H](C(=O)N4CCCCC4)C3(C)C)CC[C@]3(C)[C@H](CC[C@@H]4[C@@]5(C)CC[C@H](OC(=O)[C@H]6[C@@H](CC(=O)O)C6(C)C)C(C)(C)[C@@H]5CC[C@]43C)[C@@H]12", 2.25],
  ["CC(C)(CC(=O)O[C@H]1CC[C@]2(C)[C@H]3CC[C@@H]4[C@H]5[C@H]([C@]6(C)CO6)CC[C@]5(C(=O)N[C@@H]5C[C@H](C(=O)N6CCCCC6)C5(C)C)CC[C@@]4(C)[C@]3(C)CC[C@H]2C1(C)C)C(=O)O", 0.63]
]}

Below: the item to evaluate.
State its Tmax for this molecule: "Cc1nnc([C@H]2C[C@@H](NC(=O)[C@]34CC[C@@H](C5(C)CC5)[C@@H]3[C@H]3CC[C@@H]5[C@@]6(C)CC[C@H](OC(=O)[C@H]7C[C@@H](C(=O)O)C7(C)C)C(C)(C)[C@@H]6CC[C@@]5(C)[C@]3(C)CC4)C2(C)C)o1"
4.5

###

Let's look at some molecules and their measured half-life.
Assay: Single dose oral pharmacokinetic study in mice
Assay type: in vivo
Conditions: mouse, plasma; Mice oral PK @30 mg/kg (Table 4); read-out: t½ (converted)
Record the value in h, omitting the unit from your answer.

Previously resolved entries follow.
{"columns": ["Molecule", "Quantity Unit", "half-life"],
 "data": [
  ["C=C(C)[C@@H]1CC[C@]2(C(=O)O)CC[C@]3(C)[C@H](CC[C@@H]4[C@@]5(C)CC[C@H](OC(=O)[C@H]6[C@@H](CC(=O)O)C6(C)C)C(C)(C)[C@@H]5CC[C@]43C)[C@@H]12 [Compound 1]", "h", 6.23],
  ["CC(C)(CC(=O)O[C@H]1CC[C@]2(C)[C@H]3CC[C@@H]4[C@H]5[C@H](C6(C)CC6)CC[C@]5(C(=O)N[C@@H]5C[C@H](C(=O)N6CCCCC6)C5(C)C)CC[C@@]4(C)[C@]3(C)CC[C@H]2C1(C)C)C(=O)O [Example 4]", "h", 14.5]
]}

Below: the item to evaluate.
State its half-life for this molecule: C=C(C)[C@@H]1CC[C@]2(C(=O)N[C@@H]3C[C@H](c4nnc(C)o4)C3(C)C)CC[C@]3(C)[C@H](CC[C@@H]4[C@@]5(C)CC[C@H](OC(=O)CC(C)(C)C(=O)O)C(C)(C)[C@@H]5CC[C@]43C)[C@@H]12 [Example 11]
3.66
